Source listed as patent US20170037028A1.

biological target: GLUT1 (Homo sapiens, UniProt P11166); assay: Indirect measurement of GLUT1 activity by quantification of intracellular ATP levels (glucose induced ATP increase); format: cell-based; parameters: endogenous in cells; host or cells: DLD1 or CHO-K1; conditions: read-out: IC50 regarding glucose induced ATP increase (GLUT1 inhibition)
Sequence (P11166 whole entry, species assumed): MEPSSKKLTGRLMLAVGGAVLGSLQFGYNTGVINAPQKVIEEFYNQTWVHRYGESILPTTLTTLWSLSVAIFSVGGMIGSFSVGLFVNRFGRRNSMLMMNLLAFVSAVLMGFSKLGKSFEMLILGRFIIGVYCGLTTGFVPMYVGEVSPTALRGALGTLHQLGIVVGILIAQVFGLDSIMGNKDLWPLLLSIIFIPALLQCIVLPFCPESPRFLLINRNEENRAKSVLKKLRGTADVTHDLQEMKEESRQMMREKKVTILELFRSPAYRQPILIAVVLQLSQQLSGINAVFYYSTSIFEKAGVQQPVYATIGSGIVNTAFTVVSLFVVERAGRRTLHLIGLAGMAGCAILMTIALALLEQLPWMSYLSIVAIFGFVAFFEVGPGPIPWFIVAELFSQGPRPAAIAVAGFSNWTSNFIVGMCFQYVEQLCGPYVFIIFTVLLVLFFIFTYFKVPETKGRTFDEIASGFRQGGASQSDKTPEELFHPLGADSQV
EXPERIMENTAL_READOUT: pIC50
// pIC50 is dimensionless: -log10 of concentration (M)

Recorded pIC50, per entry:
{"COMPOUND": "Cc1ccc2nc(C)cc(C(=O)Nc3c(C)nn(Cc4ccccc4C#N)c3C)c2c1 [Example 114]", "SYSTEM_UNDER_TEST": "GLUT1 (Homo sapiens, UniProt P11166)", "pIC50": 6.08}
{"COMPOUND": "Cc1nn(Cc2ccc(C(C)C)cc2)c(C)c1NC(=O)c1cc(C(N)=O)nc2ccccc12 [Example 1405]", "SYSTEM_UNDER_TEST": "GLUT1 (Homo sapiens, UniProt P11166)", "pIC50": 8.09}
{"COMPOUND": "Cc1nn(CCN2CCN(C)CC2)c(C)c1NC(=O)c1cc(C(F)(F)F)nc2ccc(Br)cc12 [Example 1279]", "SYSTEM_UNDER_TEST": "GLUT1 (Homo sapiens, UniProt P11166)", "pIC50": 5.41}

With those in mind, consider the next compound.
// sample Cc1c(NC(=O)c2cc(C(N)=O)nc3ccc(Br)cc23)c(C(F)(F)F)nn1Cc1ccc(OC(F)(F)F)cc1 [Example 1498] , its pIC50 was 8.10
